molecular target: 4-hydroxy-tetrahydrodipicolinate synthase (Escherichia coli K-12); assay: Inhibition of Escherichia coli DHDPS
pKi: −log10 of the molar value.
Metric: pKi

Look over these answered cases.
Molecule: O=C(O)C(=O)CF
pKi: 3.66

Molecule: CCC(=O)C(=O)O
pKi: 3.08

A = CCCC(=O)C(=O)O
B = O=CC(=O)O [GLYOXYLATE]
Query: Between A and B , which one has the lower reported pKi value? Respond using the label that marks the chosen record.
Response: A

---

Biological target: 4-hydroxy-tetrahydrodipicolinate synthase (Bacillus subtilis (strain 168))
Sequence (Q04796 whole entry): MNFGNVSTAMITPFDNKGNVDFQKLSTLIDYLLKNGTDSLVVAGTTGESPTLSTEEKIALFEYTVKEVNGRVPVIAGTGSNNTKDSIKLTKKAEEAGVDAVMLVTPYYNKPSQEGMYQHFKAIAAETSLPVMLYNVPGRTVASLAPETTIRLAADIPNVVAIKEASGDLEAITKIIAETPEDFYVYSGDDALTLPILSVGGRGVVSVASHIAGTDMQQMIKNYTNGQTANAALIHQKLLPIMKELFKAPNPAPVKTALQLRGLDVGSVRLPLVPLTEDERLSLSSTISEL
Assay: Inhibition of Bacillus subtilis DHDPS
Metric: pKi
// field semantics: pKi = negative decimal log of concentration (mol/L)

Query: If you can, please state the reported pKi value of O=C(O)C(=O)CCCC(=O)C(=O)O .
Response: 3.80

---

biological target: UniProtKB P0A6L2; experiment: Inactivation of Escherichia coli recombinant DHDPS
Metric: Kinact (×10⁻³ /s)

Record excerpt, results attached:
Structure as smiles: O=C(O)/C=C/C(=O)/C=C/C(=O)O
Unit name: ×10⁻³ /s
Kinact: 1.9
--
Structure as smiles: CCOC(=O)/C=C/C(=O)/C=C/C(=O)OCC
Unit name: ×10⁻³ /s
Kinact: 29

A = CCOC(=O)/C=C/C(=O)CCC(=O)OCC
B = O=C(O)/C=C/C(=O)CCC(=O)O
Query: Of A and B , whose reported Kinact is the larger number? State your choice using its label.
Response: B

---

experiment: Inhibition of succinyl co-transferase; settings: read-out: Ki(app)
Metric: pKi
Would you please state pKi, meaning minus log10 of the concentration in mol/L, as a bare number?

Query: Return reported pKi; argument: O=C(O)/C=C/C(=O)/C=C/C(=O)O
Response: 3.28

---

biological target: 4-hydroxy-tetrahydrodipicolinate synthase (Escherichia coli K-12, UniProt P0A6L2); assay: Inhibition of Escherichia coli recombinant DHDPS overexpressed with DHDPR assessed as residual activity by modified coupled assay; conditions: read-out: Ki(app)
Metric: Ki (mM)

Structure as smiles: O=C(O)/C=C/C(=O)/C=C/C(=O)O
Measured result: 1.63

a = CCOC(=O)/C=C/C(=O)/C=C/C(=O)OCC
b = O=C(O)/C=C/C(=O)CCC(=O)O
c = CCOC(=O)/C=C/C(=O)CCC(=O)OCC
Query: # rank_down: sort by Ki, max first Please list each label once, in the requested order.
Response: b, c, a
(b: 32.4 mM, c: 10.9 mM, a: 4.95 mM)

---

biological target: 4-hydroxy-tetrahydrodipicolinate synthase (Escherichia coli K-12) (UniProt P0A6L2); test: Ratio of Kinact to Ki(app) for Escherichia coli recombinant DHDPS
Sequence (P0A6L2 whole entry): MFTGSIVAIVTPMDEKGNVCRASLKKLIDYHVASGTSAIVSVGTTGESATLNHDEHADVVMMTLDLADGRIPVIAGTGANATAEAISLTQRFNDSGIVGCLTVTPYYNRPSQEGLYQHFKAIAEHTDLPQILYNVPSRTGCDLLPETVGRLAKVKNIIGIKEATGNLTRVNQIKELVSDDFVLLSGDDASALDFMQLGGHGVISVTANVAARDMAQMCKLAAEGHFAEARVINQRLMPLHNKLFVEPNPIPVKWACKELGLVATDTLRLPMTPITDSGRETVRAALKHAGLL
Metric: Ratio (M⁻¹ s⁻¹)

Structure as smiles: O=C(O)/C=C/C(=O)CCC(=O)O
Target system: 4-hydroxy-tetrahydrodipicolinate synthase (Escherichia coli K-12) (UniProt P0A6L2)
Measured result: 0.12

I = O=C(O)/C=C/C(=O)/C=C/C(=O)O
II = CCOC(=O)/C=C/C(=O)/C=C/C(=O)OCC
III = CCOC(=O)/C=C/C(=O)CCC(=O)OCC
Query: Falling order of Ratio, please. Order the labels as requested and give them as your answer.
Response: II, I, III
